Biological target: Histamine H2 receptor (Homo sapiens, UniProt P25021); also: in other assays of this panel Not Active means under 50% inhibition at 10 µM
Sequence (P25021 whole entry): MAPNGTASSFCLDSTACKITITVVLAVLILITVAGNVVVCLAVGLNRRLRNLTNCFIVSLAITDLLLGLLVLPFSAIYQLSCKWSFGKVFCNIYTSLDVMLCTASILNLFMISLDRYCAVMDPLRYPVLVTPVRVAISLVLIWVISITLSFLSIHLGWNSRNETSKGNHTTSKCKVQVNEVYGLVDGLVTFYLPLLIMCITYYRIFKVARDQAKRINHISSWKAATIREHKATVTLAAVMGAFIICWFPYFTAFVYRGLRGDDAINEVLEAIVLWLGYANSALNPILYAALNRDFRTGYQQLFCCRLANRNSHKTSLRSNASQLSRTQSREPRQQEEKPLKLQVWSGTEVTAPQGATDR
Type: cell membranes, CHO-K1, Membrane
Conditions: cho-k1
QUANTITY: Ki

Take a look at these entries with their results.
>>> experimental_result("GENTAMICIN")
"Not Active"
>>> experimental_result("GRAMICIDIN")
"Not Active"
>>> experimental_result("MANGANESE CHLORIDE ANHYDROUS")
"Not Active"
>>> experimental_result("AURANOFIN")
"Not Active"

Query :: Query: Ki; subject: SODIUM ORTHOVANAD
Result :: Not Active

Query :: Entry to check: "NYSTATIN"
Result :: Not Active

Query :: Entry to check: GADOPENTETATE DIMEGLUMINE
Result :: Not Active

###

Molecular target: Cysteinyl leukotriene receptor 1 (Homo sapiens, UniProt Q9Y271); also: in other assays of this panel Not Active means under 50% inhibition at 10 µM
Sequence (Q9Y271 whole entry): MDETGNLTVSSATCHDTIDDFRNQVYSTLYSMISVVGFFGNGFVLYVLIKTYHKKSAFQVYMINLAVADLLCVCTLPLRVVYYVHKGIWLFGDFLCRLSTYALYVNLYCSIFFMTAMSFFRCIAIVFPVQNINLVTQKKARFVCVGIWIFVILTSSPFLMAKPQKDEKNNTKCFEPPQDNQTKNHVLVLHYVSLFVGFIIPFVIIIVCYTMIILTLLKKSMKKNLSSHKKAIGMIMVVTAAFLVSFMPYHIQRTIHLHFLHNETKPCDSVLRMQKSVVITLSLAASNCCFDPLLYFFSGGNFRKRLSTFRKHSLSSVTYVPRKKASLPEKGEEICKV
Format: cell membranes, Membrane
Settings: cho-k1
QUANTITY: IC50

Take a look at these entries with their results.
>>> experimental_result("CC(c1cc2ccccc2s1)N(O)C(N)=O (centres undefined) [ZILEUTON]")
"Not Active"
>>> experimental_result("CNC1(c2ccccc2Cl)CCCCC1=O (centres undefined) [KETAMINE]")
"Not Active"
>>> experimental_result("C[C@@H]1O[C@@H](O[C@@H]2C=C3CC[C@@H]4[C@H](CC[C@]5(C)[C@@H](c6ccc(=O)oc6)CC[C@]45O)[C@@]3(C)CC2)[C@H](O)[C@H](O)[C@H]1O [PROSCILLARIDIN]")
"Not Active"
>>> experimental_result("NNc1nncc2ccccc12 [HYDRALAZINE]")
"Not Active"
>>> experimental_result("COc1ccc(CCN(C)CCCC(C#N)(c2ccc(OC)c(OC)c2)C(C)C)cc1OC (centres undefined)")
"Not Active"

Query :: Query: IC50; subject: CCN(CC)CC(=O)Nc1c(C)cccc1C [LIDOCAINE]
Result :: Not Active

Query :: Entry to check: CC(C)(C)NC(=O)[C@H]1CC[C@H]2[C@@H]3CC[C@H]4NC(=O)C=C[C@]4(C)[C@H]3CC[C@]12C [FINASTERIDE]
Result :: Not Active

Query :: Entry to check: CC(C)NCC(O)c1ccc(NS(C)(=O)=O)cc1 (centres undefined) [SOTALOL]
Result :: Not Active

Query :: Entry to check: Oc1c(Cl)cc(Cl)c(Cl)c1Cc1c(O)c(Cl)cc(Cl)c1Cl [HEXACHLOROPHENE]
Result :: Not Active

###

Experiment: DRUGMATRIX: Nicotinic Acetylcholine radioligand binding (ligand: [125I] Epibatidine)
Type: cell membranes, Membrane
Conditions: imr-32; Not Active = under 50% inhibition at 10 µM
QUANTITY: Ki

Take a look at these entries with their results.
>>> experimental_result("NNc1nncc2ccccc12 [HYDRALAZINE]")
"Not Active"
>>> experimental_result("CC(C)Cc1ccc([C@@H](C)C(=O)O)cc1 [(R)-IBUPROPHEN]")
"Not Active"
>>> experimental_result("Brc1c(NC2=NCCN2)ccc2nccnc12 [BRIMONIDINE]")
"Not Active"
>>> experimental_result("CN/C(=N\\CCSCc1nc[nH]c1C)NC#N [CIMETIDINE]")
"Not Active"

Query :: Query: Ki; subject: CC(=O)[C@H]1[C@H](C#N)C[C@H]2[C@@H]3CC=C4C[C@@H](O)CC[C@]4(C)[C@H]3CC[C@@]21C [PREGNENOLONE CARBONITRILE]
Result :: Not Active

Query :: Entry to check: CC(C)NCC(O)c1ccc(NS(C)(=O)=O)cc1 (stereo not drawn) [SOTALOL]
Result :: Not Active

Query :: Entry to check: CO[C@H]1/C=C/O[C@@]2(C)Oc3c(C)c(O)c4c(O)c(c(/C=N/N5CCN(C6CCCC6)CC5)c(O)c4c3C2=O)NC(=O)/C(C)=C\C=C\[C@H](C)[C@H](O)[C@@H](C)[C@@H](O)[C@@H](C)[C@H](OC(C)=O)[C@@H]1C [RIFAPENTINE]
Result :: Not Active

Query :: Entry to check: CC(c1cc2ccccc2s1)N(O)C(N)=O (stereo not drawn) [ZILEUTON]
Result :: Not Active
